- Method notes: Pharmacokinetic assay in mice
- Format: in vivo, Balb/c mice
- Condition parameters: male, Balb/c, plasma, 2 mg/kg; mouse, IV 2mpk; read-out: MRT(0-∞)
Quantity kind: MRT inf (h)

> print(dat)
                                   compound  quantity.kind  obs.value
1  Cn1ncc2c(N)nc3cc(F)c(C(=O)N(Cc4ccc5c(c4)OC(F)(F)O5)C4CC4)cc3c21 [Example I-16]        MRT inf        4.9
2  CCN(Cc1ccc2c(c1)OC(F)(F)O2)C(=O)c1ccc2nc(N)c3cnn(C)c3c2c1 [Example I-5]        MRT inf        2.9

(A) CN(Cc1ccc2c(c1)OC(F)(F)O2)C(=O)c1ccc2nc(N)c3cnn(C)c3c2c1 [Example I-2]
(B) CN(Cc1ccc2c(c1)OC(F)(F)O2)C(=O)c1cc2c(cc1F)nc(N)c1cnn(C)c12 [Example I-1]
**Q:** Between item A and item B , which reported MRT inf is smaller? Please reply using the label of the selected record.
**A:** B

* * *

- Method notes: Pharmacokinetic assay in mice
- Type: in vivo, Balb/c mice
- Condition parameters: mouse, PO 10mpk
Quantity kind: t1/2z (h)

In the examples that follow, each entry is paired with its recorded t1/2z.
> print(dat)
                            compound.smiles  quantity.kind  obs.value
1  CCN(Cc1ccc2c(c1)OC(F)(F)O2)C(=O)c1ccc2nc(N)c3cnn(C)c3c2c1          t1/2z        2.4
2  Cn1ncc2c(N)nc3cc(F)c(C(=O)N4CCOC[C@@H]4c4ccc5c(c4)OC(F)(F)O5)cc3c21          t1/2z        4.9
3  CN(Cc1ccc2c(c1)OC(F)(F)O2)C(=O)c1cc2c(cc1F)nc(N)c1cnn(C)c12          t1/2z        4.1

(A) Cn1ncc2c(N)nc3cc(F)c(C(=O)N(Cc4ccc5c(c4)OC(F)(F)O5)C4CC4)cc3c21
(B) CN(Cc1ccc2c(c1)OC(F)(F)O2)C(=O)c1ccc2nc(N)c3cnn(C)c3c2c1
**Q:** Between item A and item B , which reported t1/2z is smaller? Please reply using the label of the selected record.
**A:** A

* * *

- Method notes: Pharmacokinetic assay in rats
- Format: in vivo, SD rats
- Condition parameters: SD, plasma, 10 mg/kg; rat, PO 10mpk
Quantity kind: Cmax (nM)

(I) Cn1ncc2c(N)nc3cc(F)c(C(=O)N(Cc4ccc5c(c4)OC(F)(F)O5)C4CC4)cc3c21 [Example I-16]
(II) CN(Cc1ccc2c(c1)OC(F)(F)O2)C(=O)c1ccc2nc(N)c3cnn(C)c3c2c1 [Example I-2]
**Q:** Between item I and item II , which reported Cmax is smaller? Please reply using the label of the selected record.
**A:** I

* * *

- Method notes: Pharmacokinetic assay in mice
- Format: in vivo, Balb/c mice
- Condition parameters: plasma, 10 mg/kg; mouse, PO 10mpk; read-out: MRT(0-∞)
Quantity kind: MRT inf (h)
I only need the number, in h, no unit after it.

get_value(item= Cn1ncc2c(N)nc3cc(F)c(C(=O)N4CCOC[C@@H]4c4ccc5c(c4)OC(F)(F)O5)cc3c21 [Example I-7] , readout=MRT inf) returns 6.1
